ASSAY SYSTEM: hMC4-R (Homo sapiens (Human))
Sequence (P32245 whole entry): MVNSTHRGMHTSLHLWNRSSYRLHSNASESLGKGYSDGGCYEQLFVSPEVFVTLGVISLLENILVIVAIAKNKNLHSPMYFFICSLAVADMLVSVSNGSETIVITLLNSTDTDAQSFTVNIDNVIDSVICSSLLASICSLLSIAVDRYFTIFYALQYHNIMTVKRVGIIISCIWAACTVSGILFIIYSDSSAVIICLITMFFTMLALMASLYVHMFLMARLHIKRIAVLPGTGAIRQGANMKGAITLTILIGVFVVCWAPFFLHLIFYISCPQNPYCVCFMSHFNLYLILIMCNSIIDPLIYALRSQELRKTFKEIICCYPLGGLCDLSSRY
PROTOCOL: High and low density hMC4-R functional assay (cAMP, HEK293-T-REx-MC4-R cells)
Format: cell-based
CONDITION DESCRIPTION: 10 ng/mL Doxycycline (high density hMC4-R system); NDP-α-MSH = 100%; read-out: Intrinsic Activity (%)
Positions of bridges follow the written chain, without caps; N, C: chain ends. Non-standard residues stand in square brackets, D forms with d. Residues, ends and D or L forms follow the SMILES beside them. dPhe(4-CN) = N#Cc1ccc(C[C@@H](N)C(=O)O)cc1
OUTCOME MEASURE: Emax (%)
Write down the numeric answer in % and omit the unit.

[
  {
    "COMPOUND": "CC(=O)N[C@@H](CCCNC(=N)N)C(=O)N[C@H]1CCC(=O)NCCC[C@@H](C(N)=O)NC(=O)[C@H](Cc2c[nH]c3ccccc23)NC(=O)[C@H](CCCNC(=N)N)NC(=O)[C@@H](Cc2ccc(C#N)cc2)NC(=O)[C@H](CCN)NC1=O",
    "SCALE UNIT": "%",
    "Emax": 100
  }
]

Consider the record given below.
get_value(item= CC(=O)N[C@@H](CCCNC(=N)N)C(=O)N[C@H]1CC(=O)NCCCC[C@@H](C(N)=O)NC(=O)[C@H](Cc2c[nH]c3ccccc23)NC(=O)[C@H](CCCNC(=N)N)NC(=O)[C@@H](Cc2ccc(C#N)cc2)NC(=O)[C@H](CC(N)=O)NC1=O [Example 89] (Ac-RDN[dPhe(4-CN)]RWK-NH2; lactam 2-7) , readout=Emax) returns 87

Data provenance is patent US9040663B2.
